# test_system: X-box-binding protein 1 (Homo sapiens)
# measurement_protocol: ATG_Xbp1_CIS: Attagene CIS-FACTORIAL HepG2 Assay for human X-box Binding Protein 1 (XBP1) (AID 2282972)
# experimental_parameters: HepG2 XBP1 cis-element reporter, Attagene multiplex; actives raise or lower the signal
Calls of active or inactive are those of the source. The calls were made as follows: active = hit-call score of the fitted dose curve at least 0.9, where 1 is the maximum; inactive = score below 0.9.
# valid calls are active, inactive; nothing else

Example entries begin here.
>>> classification("Cc1ccc2c(c1)C(=O)c1ccccc1C2=O")
"inactive"
>>> classification("CCN(CCO)c1cccc(C)c1")
"inactive"
>>> classification("COC(=O)/C=C\\C(=O)O")
"inactive"

Tell me the recorded outcome of this test for CCCCCCCCc1ccc(Nc2ccc(CCCCCCCC)cc2)cc1 .
inactive

Tell me the recorded outcome of this test for C=C(C)[C@H]1CC=C(C)CC1 .
inactive

Ref: PubChem BioAssay (EPA / NIEHS)
